- test_name: Antiproliferative activity against human VCaP cells assessed as reduction in cell viability after 96 hrs by propidium iodide staining based fluorescence assay
- Format: functional
- experimental_setup: Homo sapiens, VCaP, 96 h; read-out: IC50
pIC50: −log10 of the molar value.
Decision: pIC50 >= 5 yields rule met, all other cases yield rule not met.

Qu. Is the recorded value of pIC50 equal to or greater than 5 for this molecule? CNC(=O)c1ccc(N2C(=S)N(c3cc(C(F)(F)F)cc(C(F)(F)F)c3)C(=O)C2(C)C)cc1
Ans. rule not met

Qu. Check this molecule for pIC50 at or above 5: C[C@](O)(CS(=O)(=O)c1ccc(F)cc1)C(=O)Nc1ccc(C#N)c(C(F)(F)F)c1 [(R)-BICALUTAMIDE]
Ans. rule not met

Qu. Does the molecule CC(O)(COc1cc(C(F)(F)F)cc(C(F)(F)F)c1)C(=O)Nc1ccc([N+](=O)[O-])cc1C(F)(F)F (stereo not given) have recorded pIC50 that is 5 or more?
Ans. rule not met

Qu. Form field: pIC50 at least 5? Entry: CC(O)(CS(=O)(=O)c1cc(C(F)(F)F)cc(C(F)(F)F)c1)C(=O)Nc1ccc([N+](=O)[O-])c(C(F)(F)F)c1 (stereo not given)
Ans. rule met

====

- test_name: Antiproliferative activity against human DU145 cells assessed as reduction in cell viability after 96 hrs by propidium iodide staining based fluorescence assay
- Assay type: functional, DU-145
- experimental_setup: Homo sapiens, DU-145, 96 h; read-out: IC50
value_kind: pIC50
pIC50 is defined as minus the log10 of a concentration measured in mol/L.

Qu. I would be grateful if you could share the reported pIC50 for CC(O)(CS(=O)(=O)c1cccc(OC(F)(F)F)c1)C(=O)Nc1cc(C(F)(F)F)cc(C(F)(F)F)c1 (stereo not drawn) .
Ans. 4.85

Qu. Give the measured pIC50 of CC1(C)C(=O)N(c2ccc([N+](=O)[O-])c(C(F)(F)F)c2)C(=S)N1c1cc(C(F)(F)F)cc(C(F)(F)F)c1 .
Ans. 4.74

Qu. Can you look up the measured pIC50 of CC(O)(CS(=O)(=O)c1cc(C(F)(F)F)cc(C(F)(F)F)c1)C(=O)Nc1ccc([N+](=O)[O-])c(C(F)(F)F)c1 (stereo not drawn) for me?
Ans. 5.28

Qu. Given the molecule CC(O)(CS(=O)(=O)c1ccccc1C(F)(F)F)C(=O)Nc1cc(C(F)(F)F)cc(C(F)(F)F)c1 (stereo not drawn) , what is its reported pIC50?
Ans. 4.96

Qu. Name the recorded pIC50 for CC(O)(CSc1cccc(C(F)(F)F)c1)C(=O)Nc1cc(C(F)(F)F)cc(C(F)(F)F)c1 (stereo not drawn) .
Ans. 5.00

Qu. Would you kindly share the measured pIC50 for CC(O)(CSc1cc(C(F)(F)F)cc(C(F)(F)F)c1)C(=O)Nc1ccc(C#N)c(C(F)(F)F)c1 (stereo not drawn) ?
Ans. 5.55

Qu. So what's the measured pIC50 for this one? CC(O)(COc1cc(C(F)(F)F)cc(C(F)(F)F)c1)C(=O)Nc1ccc(C(F)(F)F)cc1 (stereo not drawn)
Ans. 5.03

Qu. Quick check: pIC50 of CC(O)(CSc1cc(C(F)(F)F)cc(C(F)(F)F)c1)C(=O)Nc1ccc([N+](=O)[O-])c(C(F)(F)F)c1 (stereo not drawn) ?
Ans. 5.56
